Entries and their measured inhibition follow.
# tested system: Insulin receptor (Homo sapiens) (UniProt P06213);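 note: each figure is a mean inhibition value from the GSK PKIS screening panel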
# Sequence (P06213 28-758 limits assumed): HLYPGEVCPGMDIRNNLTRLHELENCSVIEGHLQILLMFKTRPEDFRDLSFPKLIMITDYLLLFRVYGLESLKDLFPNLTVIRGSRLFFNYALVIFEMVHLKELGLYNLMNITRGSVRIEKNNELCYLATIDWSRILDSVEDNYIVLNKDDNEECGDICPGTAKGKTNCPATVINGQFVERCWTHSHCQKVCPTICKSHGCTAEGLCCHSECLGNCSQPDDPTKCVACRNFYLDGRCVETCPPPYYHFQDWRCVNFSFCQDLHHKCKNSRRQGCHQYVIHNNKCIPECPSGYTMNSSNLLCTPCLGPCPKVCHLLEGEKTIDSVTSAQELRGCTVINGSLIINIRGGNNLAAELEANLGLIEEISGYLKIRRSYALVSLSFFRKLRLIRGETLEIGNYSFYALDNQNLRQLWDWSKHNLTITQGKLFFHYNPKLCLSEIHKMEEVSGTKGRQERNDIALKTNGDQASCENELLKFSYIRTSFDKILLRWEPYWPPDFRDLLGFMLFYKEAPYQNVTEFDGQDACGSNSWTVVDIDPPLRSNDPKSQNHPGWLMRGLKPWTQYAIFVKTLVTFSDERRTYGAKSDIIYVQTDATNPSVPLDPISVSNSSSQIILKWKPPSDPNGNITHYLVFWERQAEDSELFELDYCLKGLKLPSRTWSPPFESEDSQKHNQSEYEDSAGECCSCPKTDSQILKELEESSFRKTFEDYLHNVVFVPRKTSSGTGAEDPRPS
# Sequence (P06213 763-1382 limits assumed): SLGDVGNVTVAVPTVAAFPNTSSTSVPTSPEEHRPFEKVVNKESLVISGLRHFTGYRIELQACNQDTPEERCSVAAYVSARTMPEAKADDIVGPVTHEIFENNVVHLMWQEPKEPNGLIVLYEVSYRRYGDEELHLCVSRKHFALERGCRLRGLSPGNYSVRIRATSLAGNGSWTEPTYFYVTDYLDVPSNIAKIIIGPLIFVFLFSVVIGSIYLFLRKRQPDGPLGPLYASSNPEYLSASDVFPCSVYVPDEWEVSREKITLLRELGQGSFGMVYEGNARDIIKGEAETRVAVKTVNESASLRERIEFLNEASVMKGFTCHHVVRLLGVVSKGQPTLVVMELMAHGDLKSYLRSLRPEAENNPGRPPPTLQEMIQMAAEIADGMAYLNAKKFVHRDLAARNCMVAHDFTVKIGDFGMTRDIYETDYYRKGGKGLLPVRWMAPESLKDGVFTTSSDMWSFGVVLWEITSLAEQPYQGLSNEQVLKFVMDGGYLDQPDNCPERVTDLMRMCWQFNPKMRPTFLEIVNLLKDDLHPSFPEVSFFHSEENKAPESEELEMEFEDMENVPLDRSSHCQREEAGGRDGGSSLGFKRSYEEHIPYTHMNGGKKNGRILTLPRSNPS
# run parameters: at 1 µM
observable: inhibition (%)

• NS(=O)(=O)c1ccc(-c2cc3ccncc3cc2OCc2ccccc2)cc1 = 5.38
• ON=C1CCc2cc(-c3nc(C4CCNCC4)[nH]c3-c3ccncc3)ccc21 = -0.75
• NS(=O)(=O)c1cccc(Nc2cc(-c3ccc(F)cc3)n[nH]2)c1 = 1.03
• Nc1nccc(-c2c(-c3ccc(F)cc3)nn3cc(C(F)(F)F)ccc23)n1 = 2.01
• CN(C)C(=O)O[C@H]1CN[C@H](C#Cc2cc3ncnc(Nc4ccc(OCc5cccc(F)c5)c(Cl)c4)c3s2)C1 = 3.06
• CN1CCN(C(=O)c2ccc(NC(=O)Nc3ccc(N(C)c4ccnc(Nc5ccc(CS(C)(=O)=O)cc5)n4)cc3)cc2)CC1 = 10.6
